- Tested on: mice
- assay.overview: Acute toxicity in mice after oral administration
- Format: in vivo
- condition.description: 250 mg/kg p.o., observation time 14 days
outcome.measure: animals died (out of animals tested)

Which value of animals died (out of animals tested) has been reported for [O-][S+]1CCN(c2nc(N(CCO)CCO)nc3c(OCc4ccccc4)ncnc23)CC1 [N] in the records? 0 out of 10

Dear colleague, I am looking for the recorded animals died (out of animals tested) of the following molecule: [O-][S+]1CCN(c2nc(NCCO)nc3c(SCc4ccco4)ncnc23)CC1 [G] 0 out of 6

Which animals died (out of animals tested) is listed for CC(C)CCOc1ncnc2c(N3CC[S+]([O-])CC3)nc(N(CCO)CCO)nc12 [M] ? 0 out of 6

animals died (out of animals tested) for COCCN(CCO)c1nc(N2CC[S+]([O-])CC2)c2ncnc(OCc3ccccc3)c2n1 [O] ? 0 out of 6

Would you kindly share the measured animals died (out of animals tested) for COCCN(CCO)c1nc(N2CC[S+]([O-])CC2)c2ncnc(SCc3ccccc3)c2n1 [Compound E] ? 0 out of 10

Look up animals died (out of animals tested) for this molecule: [O-][S+]1CCN(c2nc(NCCO)nc3c(SC4CCCCC4)ncnc23)CC1 [B] 0 out of 10

What value of animals died (out of animals tested) has been reported for the following molecule? CCCSc1ncnc2c(N3CC[S+]([O-])CC3)nc(NCCO)nc12 [A] 0 out of 6

Cited source: patent US4478833A
